Experiment: Pharmacokinetics (plasma Cmax, AUC, Tmax, t1/2, trough concentrations)
Assay type: in vivo, human
Conditions: human, plasma, oral, 100 mg, steady state Day 28; 100 mg QD Part 1; read-out: AUC0-24, Geo Mean
Parameter: AUC(0-t) (µg·h/mL)
Respond with the bare value in µg·h/mL.

Task item: Look up AUC(0-t) of CC(=O)N[C@H]1CC[C@H](NC(=O)CN2CCN(c3nncc(-c4ccc(C)cc4)n3)CC2)CC1 and report it.
Reply: 10.4

----------
Test: Pharmacokinetics (plasma Cmax, AUC, Tmax, t1/2, trough concentrations)
Type: in vivo, human
Conditions: human, plasma, oral, 100 mg, steady state Day 28; 100 mg QD Part 1; read-out: AUC0-24, Median
Parameter: AUC(0-t)
Answer with the value and then the unit.

Task item: Look up AUC(0-t) of CC(=O)N[C@H]1CC[C@H](NC(=O)CN2CCN(c3nncc(-c4ccc(C)cc4)n3)CC2)CC1 and report it.
Reply: 15000 ng·h/mL

----------
Test: Pharmacokinetics (plasma Cmax, AUC, Tmax, t1/2, trough concentrations)
Type: in vivo, human
Details: human, plasma, oral, 100 mg, Day 56; 100 mg QD Part 1; read-out: Trough Plasma Concentration, Geometric Mean
Parameter: concentration at 56 day (ng/mL)
Respond with the bare value in ng/mL.

Task item: Look up concentration at 56 day of CC(=O)N[C@H]1CC[C@H](NC(=O)CN2CCN(c3nncc(-c4ccc(C)cc4)n3)CC2)CC1 and report it.
Reply: 72.1

----------
Assay: Pharmacokinetics (plasma Cmax, AUC, Tmax, t1/2, trough concentrations)
Type: in vivo, human
Conditions: human, plasma, oral, 12.5 mg, Day 56; 12.5 mg QD; read-out: Trough Plasma Concentration, Median
Parameter: concentration at 56 day (ng/mL)
Respond with the bare value in ng/mL.

Task item: Look up concentration at 56 day of CC(=O)N[C@H]1CC[C@H](NC(=O)CN2CCN(c3nncc(-c4ccc(C)cc4)n3)CC2)CC1 and report it.
Reply: 7.6

----------
Assay: Pharmacokinetics (plasma Cmax, AUC, Tmax, t1/2, trough concentrations)
Type: in vivo, human
Settings: human, plasma, oral, 100 mg, steady state Day 28; 100 mg QD Part 1; read-out: Cmax, Median
Parameter: Cmax (ng/mL)
Respond with the bare value in ng/mL.

Task item: Look up Cmax of CC(=O)N[C@H]1CC[C@H](NC(=O)CN2CCN(c3nncc(-c4ccc(C)cc4)n3)CC2)CC1 and report it.
Reply: 1590

----------
Assay: Pharmacokinetics (plasma Cmax, AUC, Tmax, t1/2, trough concentrations)
Format: in vivo, human
Conditions: human, plasma, oral, 25 mg, Day 7; 25 mg BID; read-out: Trough Plasma Concentration, Mean (SD)
Parameter: concentration at 7 day (ng/mL)
Respond with the bare value in ng/mL.

Task item: Look up concentration at 7 day of CC(=O)N[C@H]1CC[C@H](NC(=O)CN2CCN(c3nncc(-c4ccc(C)cc4)n3)CC2)CC1 and report it.
Reply: 94.2

----------
Assay: Pharmacokinetics (plasma Cmax, AUC, Tmax, t1/2, trough concentrations)
Type: in vivo, human
Conditions: human, plasma, oral, 12.5 mg, Day 28; 12.5 mg QD; read-out: Trough Plasma Concentration, Median
Parameter: concentration at 28 day
Answer with the value and then the unit.

Task item: Look up concentration at 28 day of CC(=O)N[C@H]1CC[C@H](NC(=O)CN2CCN(c3nncc(-c4ccc(C)cc4)n3)CC2)CC1 and report it.
Reply: 4.1 ng/mL

----------
Experiment: Pharmacokinetics (plasma Cmax, AUC, Tmax, t1/2, trough concentrations)
Format: in vivo, human
Conditions: human, plasma, oral, 25 mg, Day 28; 25 mg BID; read-out: Trough Plasma Concentration, Median
Description: Pharmacokinetic endpoints of this study are PK parameters, including, of area under the plasma concentration versus time curve (AUC), maximum plasma concentration (Cmax), time to maximum concentration (Tmax), and half-life (t1/2) will be summarized descriptively for Randomization (baseline) and Study Weeks 1, 4, and 8 PK/PD Analysis Set includes all subjects in the SAF who have sufficient data available for the analysis of pharmacokinetic and pharmacodynamic measurements. […]
Parameter: concentration at 28 day (ng/mL)
Respond with the bare value in ng/mL.

Task item: Look up concentration at 28 day of CC(=O)N[C@H]1CC[C@H](NC(=O)CN2CCN(c3nncc(-c4ccc(C)cc4)n3)CC2)CC1 and report it.
Reply: 56.3

----------
Test: Pharmacokinetics (plasma Cmax, AUC, Tmax, t1/2, trough concentrations)
Assay type: in vivo, human
Conditions: human, plasma, oral, 12.5 mg, steady state Day 28; 12.5 mg BID; read-out: AUC0-24, Geo Mean
Parameter: AUC(0-t)
Answer with the value and then the unit.

Task item: Look up AUC(0-t) of CC(=O)N[C@H]1CC[C@H](NC(=O)CN2CCN(c3nncc(-c4ccc(C)cc4)n3)CC2)CC1 and report it.
Reply: 940 ng·h/mL

----------
Assay: Pharmacokinetics (plasma Cmax, AUC, Tmax, t1/2, trough concentrations)
Assay type: in vivo, human
Conditions: human, plasma, oral, 100 mg, Day 56; 100 mg QD Part 2; read-out: Trough Plasma Concentration, Mean (SD)
Parameter: concentration at 56 day (ng/mL)
Respond with the bare value in ng/mL.

Task item: Look up concentration at 56 day of CC(=O)N[C@H]1CC[C@H](NC(=O)CN2CCN(c3nncc(-c4ccc(C)cc4)n3)CC2)CC1 and report it.
Reply: 23.2

----------
Assay: Pharmacokinetics (plasma Cmax, AUC, Tmax, t1/2, trough concentrations)
Assay type: in vivo, human
Conditions: human, plasma, oral, 12.5 mg, Day 56; 12.5 mg QD; read-out: Trough Plasma Concentration, Mean (SD)
Parameter: concentration at 56 day (ng/mL)
Respond with the bare value in ng/mL.

Task item: Look up concentration at 56 day of CC(=O)N[C@H]1CC[C@H](NC(=O)CN2CCN(c3nncc(-c4ccc(C)cc4)n3)CC2)CC1 [Compound A HBr] and report it.
Reply: 39.9

----------
Assay: Pharmacokinetics (plasma Cmax, AUC, Tmax, t1/2, trough concentrations)
Type: in vivo, human
Conditions: human, plasma, oral, 100 mg, 100 mg QD; Day 28; read-out: Steady-state AUC0-24, mean of Cohort 1 and Cohort 2
Parameter: AUC(0-t)

Task item: Look up AUC(0-t) of CC(=O)N[C@H]1CC[C@H](NC(=O)CN2CCN(c3nncc(-c4ccc(C)cc4)n3)CC2)CC1 and report it.
Reply: ~11200 ng·h/mL

----------
Assay: Pharmacokinetics (plasma Cmax, AUC, Tmax, t1/2, trough concentrations)
Type: in vivo, human
Conditions: human, plasma, oral, 100 mg, Day 28; 100 mg QD Part 2; read-out: Trough Plasma Concentration, Median
Parameter: concentration at 28 day (ng/mL)
Respond with the bare value in ng/mL.

Task item: Look up concentration at 28 day of CC(=O)N[C@H]1CC[C@H](NC(=O)CN2CCN(c3nncc(-c4ccc(C)cc4)n3)CC2)CC1 and report it.
Reply: 19.9

----------
Assay: Pharmacokinetics (plasma Cmax, AUC, Tmax, t1/2, trough concentrations)
Type: in vivo, human
Details: human, plasma, oral, 12.5 mg, steady state Day 28; 12.5 mg QD; read-out: Cmax, Geo Mean
Parameter: Cmax (ng/mL)
Respond with the bare value in ng/mL.

Task item: Look up Cmax of CC(=O)N[C@H]1CC[C@H](NC(=O)CN2CCN(c3nncc(-c4ccc(C)cc4)n3)CC2)CC1 [Compound A HBr] and report it.
Reply: 120

----------
Experiment: Pharmacokinetics (plasma Cmax, AUC, Tmax, t1/2, trough concentrations)
Format: in vivo, human
Conditions: human, plasma, oral, 50 mg, steady state Day 28; 50 mg QD; read-out: Cmax, Geo Mean
Parameter: Cmax (µg/mL)
Respond with the bare value in µg/mL.

Task item: Look up Cmax of CC(=O)N[C@H]1CC[C@H](NC(=O)CN2CCN(c3nncc(-c4ccc(C)cc4)n3)CC2)CC1 and report it.
Reply: 0.477

----------
Assay: Pharmacokinetics (plasma Cmax, AUC, Tmax, t1/2, trough concentrations)
Assay type: in vivo, human
Conditions: human, plasma, oral, 100 mg, Day 7; 100 mg QD Part 2; read-out: Trough Plasma Concentration, Mean (SD)
Parameter: concentration at 7 day
Answer with the value and then the unit.

Task item: Look up concentration at 7 day of CC(=O)N[C@H]1CC[C@H](NC(=O)CN2CCN(c3nncc(-c4ccc(C)cc4)n3)CC2)CC1 and report it.
Reply: 151 ng/mL

----------
Test: Pharmacokinetics (plasma Cmax, AUC, Tmax, t1/2, trough concentrations)
Type: in vivo, human
Conditions: human, plasma, oral, 100 mg, Day 56; 100 mg QD Part 2; read-out: Trough Plasma Concentration, Geometric Mean
Parameter: concentration at 56 day (ng/mL)
Respond with the bare value in ng/mL.

Task item: Look up concentration at 56 day of CC(=O)N[C@H]1CC[C@H](NC(=O)CN2CCN(c3nncc(-c4ccc(C)cc4)n3)CC2)CC1 and report it.
Reply: 20.3
